Molecular target: CDK2 (Homo sapiens)
Construct: host or cells: HEK293-CDK2-Hibit
Assay: HiBit Assay Protocol for CDK2 (HIBIT protein quantification, degradation)
Format: cell-based
Details: HEK293-CDK2-Hibit cells, compound treatment for 6 hours
READOUT_TYPE: CDK2 HIBIT Protein Quantification Maximum (%)
Give a bare numeral; the unit % is implied.

Recorded results for 5 molecules are shown here.
MOLECULE | UNIT_OF_MEASURE | OBS_VALUE
CC1CCCC1N1C(=O)C2(CC2)c2cnc(NC3CCN(S(=O)(=O)N4CC5(CCN(C(=O)CCCc6ccc7c(c6)n(C)c(=O)n7C6CCC(=O)NC6=O)CC5)C4)CC3)nc21 (stereo not drawn) | % | 38
CC1CCCC1N1C(=O)C2(CC2)c2cnc(NC3CCN(S(=O)(=O)N4CCN(CC5CCN(c6cccc7c6n(C)c(=O)n7C6CCC(=O)NC6=O)CC5)CC4)CC3)nc21 (stereo not drawn) | % | 79
Cn1nc(N2CCC(=O)NC2=O)c2ccc(C3CCN(Cc4cccc(S(=O)(=O)N5CCC(Nc6ncc7c(n6)N([C@@H]6CCC[C@@H](O)C6)C(=O)C76CC6)CC5)c4)CC3)cc21 | % | 76
C[C@H](c1cccc(S(=O)(=O)N2CC[C@H](Nc3ncc4c(n3)N([C@@H]3CCC[C@@H](O)C3)C(=O)C43CC3)[C@H](F)C2)c1)N1CCN(c2ccc3c(N4CCC(=O)NC4=O)nn(C)c3c2)[C@H](C)C1 | % | 91
CC1CCCC1N1C(=O)C2(CC2)c2cnc(NC3CCN(S(=O)(=O)N4CC5C4CCN5C(=O)CCCc4cccc5c4n(C)c(=O)n5C4CCC(=O)NC4=O)CC3)nc21 (stereo not drawn) | % | 62

Pending molecule:
Incoming: Data request, read-out CDK2 HIBIT Protein Quantification Maximum, for O=C1CCC(N2Cc3cc(N4CCN(CC5CCN(c6cccc(S(=O)(=O)N7CCC(Nc8ncc9c(n8)N([C@@H]8CCC[C@@H](O)C8)C(=O)C98CC8)CC7)c6)CC5)CC4)ccc3C2=O)C(=O)N1 (stereo partly drawn)
Outgoing: 79

###

Target: CDK9 (Homo sapiens)
Construct: host or cells: HEK293-CDK9-Hibit
Sequence (P50750 whole entry): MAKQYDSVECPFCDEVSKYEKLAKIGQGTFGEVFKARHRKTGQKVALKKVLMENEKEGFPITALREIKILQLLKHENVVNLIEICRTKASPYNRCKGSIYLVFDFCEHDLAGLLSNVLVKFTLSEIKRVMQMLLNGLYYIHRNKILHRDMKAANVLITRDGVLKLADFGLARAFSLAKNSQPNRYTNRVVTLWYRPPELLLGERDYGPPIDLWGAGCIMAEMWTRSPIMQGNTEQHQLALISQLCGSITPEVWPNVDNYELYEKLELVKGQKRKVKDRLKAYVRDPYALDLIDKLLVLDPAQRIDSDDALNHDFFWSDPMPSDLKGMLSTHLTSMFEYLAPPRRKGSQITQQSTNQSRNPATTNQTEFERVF
Assay: HiBit Assay Protocol for CDK9 (HIBIT protein quantification, degradation)
Type: cell-based
Conditions: 6 h, HEK293-CDK9-Hibit cells, compound treatment for 6 hours; read-out: CDK9 HIBIT Protein Quantification Maximum
Recorded measurements of Dmax, one per entry
Enter your answer as a number in %; do not include the unit.

Incoming: // query Dmax value for entry Cc1c(CN2CCC(c3ccc4c(N5CCC(=O)NC5=O)nn(C)c4c3)CC2)cccc1S(=O)(=O)N1CCC(Nc2ncc3c(n2)N([C@@H]2CCC[C@@H](O)C2)C(=O)C32CC2)CC1
Outgoing: 49

Incoming: Which value of Dmax has been reported for Cn1nc(N2CCC(=O)NC2=O)c2ccc(C3CCN(Cc4cc(S(=O)(=O)N5CCC(Nc6ncc7c(n6)N([C@@H]6CCC[C@@H](O)C6)C(=O)C76CC6)CC5)ccc4F)CC3)cc21 in the records?
Outgoing: 10

Incoming: // query Dmax value for entry CC1CCCC1N1C(=O)C2(CC2)c2cnc(NC3CCN(S(=O)(=O)N4CC5(CN(C(=O)CCCCc6ccc7c(c6)n(C)c(=O)n7C6CCC(=O)NC6=O)C5)C4)CC3)nc21 (stereo not drawn)
Outgoing: 4
